FYI, the data here is from patent US9725460B2.

Tested on: Panc-1
Experiment: Cancer cell proliferation assay, Panc-1
Type: cell-based
Settings: Homo sapiens, PANC-1; Table 2b; mean of at least three experiments; read-out: Effect on proliferation Panc-1 (IC50)
# note: exactly 4 µM is not below, so it is No; use Yes for IC50 strictly under it

C=C1C(=O)[C@]23[C@H](O)[C@H]1CC[C@H]2[C@@]12CO[C@]3(O)[C@@H](O)[C@@H]1C(C)(C)Cc1sc(NC)nc12: Yes
C=C1C(=O)[C@@]23C(CC[C@H]1[C@H]2O)[C@@]12CO[C@]3(O)[C@@H](O)C1C(C)(C)Cc1sc(NC(C)=O)nc12 (some centres unmarked): No
C=CCNc1nc2c(s1)CC(C)(C)[C@H]1[C@H](O)[C@@]3(O)OC[C@@]21[C@@H]1CC[C@H]2C(=C)C(=O)[C@]13[C@@H]2O: Yes
C=C1C(=O)[C@@]23C(CCC1[C@H]2O)[C@@]12COC3(O)[C@@H](O)C1C(C)(C)Cc1sc(NCCN3CCCCC3)nc12 (stereo in doubt): Yes
C=C1C(=O)[C@]23[C@H](O)[C@H]1CC[C@H]2[C@@]12CO[C@]3(O)[C@@H](O)[C@@H]1C(C)(C)Cc1sc(NC(=N)N)nc12: No

Data request: Please let me know if C=C1C(=O)[C@]23[C@H](O)[C@H]1CC[C@H]2[C@@]12COC3(O)[C@@H](O)[C@@H]1C(C)(C)CC[C@@H]2O shows IC50 below 4 µM.
Data returned: No

Data request: Please let me know if C=C1C(=O)[C@@]23C(CC[C@H]1[C@H]2O)[C@@]12CO[C@]3(O)[C@@H](O)C1C(C)(C)Cc1sc(N3CCCCCC3)nc12 (some centres unmarked) shows IC50 below 4 µM.
Data returned: No
